Below, each entry is listed with its recorded MC1R/MC4R cAMP EC50 ratio.
# Assay Target: human MC4R (Homo sapiens)
# Construct: expressed in transfected cells
# Sequence (P32245 whole entry): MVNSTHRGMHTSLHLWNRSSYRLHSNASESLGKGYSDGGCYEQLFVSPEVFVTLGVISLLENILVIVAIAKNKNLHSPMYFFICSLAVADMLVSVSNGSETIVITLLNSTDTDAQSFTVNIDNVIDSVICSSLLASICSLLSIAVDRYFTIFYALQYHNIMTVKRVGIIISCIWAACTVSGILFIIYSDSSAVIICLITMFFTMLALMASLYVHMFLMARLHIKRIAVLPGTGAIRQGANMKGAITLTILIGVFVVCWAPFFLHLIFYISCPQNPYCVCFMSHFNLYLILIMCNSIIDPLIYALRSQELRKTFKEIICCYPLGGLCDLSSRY
# Assay Info: Functional cAMP assay (CisBio HTRF) in BHK cells expressing human MC4R
# Assay type: cell-based
# Assay Conditions: MC1R cAMP EC50 divided by MC4R cAMP EC50
Positions of bridges follow the written chain, without caps; N, C: chain ends. Non-standard residues stand in square brackets, D forms with d. Residues, ends and D or L forms follow the SMILES beside them. Hyp = O=C(O)[C@@H]1C[C@@H](O)CN1; Api = NC1(C(=O)O)CCNCC1
When you answer, write just the number.

Exam item: Any idea what MC1R/MC4R cAMP EC50 ratio was measured for O=C1N[C@H]2CSSC[C@H](NC(=O)[C@H](Cc3c[nH]c4ccccc34)NC(=O)[C@H](Cc3c[nH]cn3)NC(=O)[C@@H](Cc3ccccc3)NC(=O)[C@H](Cc3c[nH]cn3)NC(=O)C3(CCNCC3)NC2=O)C(=O)NC2(CCNCC2)C(=O)N[C@@H](Cc2c[nH]cn2)C(=O)N[C@H](Cc2ccccc2)C(=O)N[C@@H](Cc2c[nH]cn2)C(=O)N[C@H]1Cc1c[nH]c2ccccc12 [Chem. 50] (cyclo([Api]H[dF]HWC[Api]H[dF]HWC); disulfide 6-12) ?
Marked response: 56

Please look at the following compound next.
Exam item: Any idea what MC1R/MC4R cAMP EC50 ratio was measured for C[C@@H]1NC(=O)[C@@H]2CSSC[C@H](NC(=O)[C@H](Cc3c[nH]c4ccccc34)NC(=O)[C@H](CCCCN)NC(=O)[C@H](CCCCN)NC(=O)[C@H](CCCCN)NC1=O)C(=O)N1C[C@H](O)C[C@H]1C(=O)N[C@@H](Cc1c[nH]cn1)C(=O)N[C@H](Cc1ccccc1)C(=O)N[C@@H](Cc1c[nH]cn1)C(=O)N[C@@H](Cc1c[nH]c3ccccc13)C(=O)N2 [Chem. 70] (cyclo(AKKKWC[Hyp]H[dF]HWC); disulfide 6-12) ?
Marked response: 199
